- System: cancer cells
- test: MTT cytotoxic assay of esterification products (Cytotoxicity activity)
- Assay type: cell-based, human
- testSettings: E4A esterified with 2-propenoyl chloride (Ppe = Propenoyl), compounds isolated with HPLC
measurementKind: Cytotoxicity activity

{"compound": "CC1(C)CC2C3=CCC4C5(C)CCC(O)C(C)(CO)C5CCC4(C)C3(C)CC(O)C2(COC(=O)c2ccccc2)C(OC(=O)c2ccccc2)C1O (stereo not shown)", "measurementKind": "Cytotoxicity activity", "reportedResult": "moderate"}
{"compound": "CC1(C)CC2C3=CCC4C5(C)CCC(OC(=O)c6ccccc6)C(C)(COC(=O)c6ccccc6)C5CCC4(C)C3(C)CC(O)C2(CO)C(O)C1O (stereo not shown)", "measurementKind": "Cytotoxicity activity", "reportedResult": "moderate"}
{"compound": "CC1(C)CC2C3=CCC4C5(C)CCC(OC(=O)c6ccccc6)C(C)(COC(=O)c6ccccc6)C5CCC4(C)C3(C)CC(OC(=O)c3ccccc3)C2(COC(=O)c2ccccc2)C(OC(=O)c2ccccc2)C1O (stereo not shown)", "measurementKind": "Cytotoxicity activity", "reportedResult": "weak"}
{"compound": "CC1(C)CC2C3=CCC4C5(C)CCC(OC(=O)c6ccccc6)C(C)(CO)C5CCC4(C)C3(C)CC(O)C2(CO)C(OC(=O)c2ccccc2)C1OC(=O)c1ccccc1 (stereo not shown)", "measurementKind": "Cytotoxicity activity", "reportedResult": "moderate"}

* * *

- Tested on: cancer cells
- test: MTT cytotoxic assay of esterification products (Cytotoxicity activity)
- Assay type: cell-based, human
- testSettings: esterification products of core compound E4A with Isobutyryl chloride (Iso = Isobutyryl)
measurementKind: Cytotoxicity activity

Known Cytotoxicity activity results, listed for orientation:
{"molecule": "CC1(C)CC2C3=CCC4C5(C)CCC(OC(=O)c6ccccc6)C(C)(CO)C5CCC4(C)C3(C)CC(O)C2(COC(=O)c2ccccc2)C(O)C1O (stereo not drawn)", "experimentalTarget": "cancer cells", "Cytotoxicity activity": "moderate"}
{"molecule": "CC1(C)CC2C3=CCC4C5(C)CCC(OC(=O)c6ccccc6)C(C)(COC(=O)c6ccccc6)C5CCC4(C)C3(C)CC(OC(=O)c3ccccc3)C2(COC(=O)c2ccccc2)C(OC(=O)c2ccccc2)C1O (stereo not drawn)", "experimentalTarget": "cancer cells", "Cytotoxicity activity": "weak"}
{"molecule": "CC1(C)CC2C3=CCC4C5(C)CCC(O)C(C)(COC(=O)c6ccccc6)C5CCC4(C)C3(C)CC(OC(=O)c3ccccc3)C2(COC(=O)c2ccccc2)C(OC(=O)c2ccccc2)C1OC(=O)c1ccccc1 (stereo not drawn)", "experimentalTarget": "cancer cells", "Cytotoxicity activity": "weak"}
{"molecule": "CC1(C)CC2C3=CCC4C5(C)CCC(OC(=O)c6ccccc6)C(C)(COC(=O)c6ccccc6)C5CCC4(C)C3(C)CC(O)C2(CO)C(O)C1O (stereo not drawn)", "experimentalTarget": "cancer cells", "Cytotoxicity activity": "moderate"}
{"molecule": "CC1(C)CC2C3=CCC4C5(C)CCC(O)C(C)(CO)C5CCC4(C)C3(C)CC(O)C2(CO)C(OC(=O)c2ccccc2)C1OC(=O)c1ccccc1 (stereo not drawn)", "experimentalTarget": "cancer cells", "Cytotoxicity activity": "moderate"}

Any idea what its Cytotoxicity activity is? The molecule is CC1(C)CC2C3=CCC4C5(C)CCC(OC(=O)c6ccccc6)C(C)(COC(=O)c6ccccc6)C5CCC4(C)C3(C)CC(OC(=O)c3ccccc3)C2(COC(=O)c2ccccc2)C(OC(=O)c2ccccc2)C1OC(=O)c1ccccc1 (stereo not drawn)
none
